B1: F1*; the commonest letter at each place (parent)
chain: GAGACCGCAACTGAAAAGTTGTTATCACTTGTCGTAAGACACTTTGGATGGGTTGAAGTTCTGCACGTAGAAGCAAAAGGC

# Variants of: B1
# assay_name: fraction ligated after 30 min (ligated reads / total reads); higher = more ligase activity
# run_parameters: with F1*sub RNA substrate (template-directed ligation), 42 °C
Listed below: fraction ligated values for each entry.

[
  {
    "sequence_input": "GAGACCGCAACTGAAAAGTTGTTATCACACGTCGTAAGACACTTTGGATGGGTTGAAGTTCTGCACGTAGAAGCAAAAGGC",
    "fraction ligated": 0.856
  },
  {
    "sequence_input": "GAGACCGCAACTGAAAAGTTGTTATCACTTGTCGTAAGACACTTTCAATGGGTTGAAGTTCTGCACGTAGAAGCAAAAGGC",
    "fraction ligated": 0.798
  },
  {
    "sequence_input": "GAGACCGCAACTGAAAAGTTGTGATCACTTGTCGTAAAACACTTTGGATGGGTTGAAGTTCTGCACGTAGAAGCAAAAGGC",
    "fraction ligated": 0.803
  },
  {
    "sequence_input": "GAGACCGCAACTGAAAAGTTGTTATCTCTTGTCGTAAGACACTTTGAATGGGTTGAAGTTCTGCACGTAGAAGCAAAAGGC",
    "fraction ligated": 0.801
  }
]
